This collection of values is drawn from paper PMC5892938.

Consider the following binders; for each one, report its binding signal.
biological target: GST-SBP-SLBP (stem-loop binding protein) (Homo sapiens, UniProt Q14493 1-270); assay: targeted RNA Bind-n-Seq; RBNS binding buffer: 25 mM Tris pH 7.5, 150 mM KCl, 3 mM MgCl2, 0.1% Tween, 0.5 mg/mL BSA, 1 mM DTT; 27 nM protein, 750 pM RNA pool; temperature not stated; high values mean tight binding; details: protein: recombinant; tags: N-terminal GST and SBP (pGEX6P1-SBP)
Quick note: give the figure in log2 fold change, leave out the unit.

Need binding signal, item consensus (structured_RNA) RNA: GGUCACGUCUCAAUCAACUCCCAAAGGCUUUUUUAAGGGCCACCCAUCAACAGCUCGCAGUCAAG 1.95

Give the measured binding signal of consensus (structured_RNA) RNA: GGUCACGUCUCAAUCAACUCCCAAAGGUUCUUUUUAGGGCCACCCAUCAACAGCUCGCAGUCAAG . 2.15

I have this binder here, consensus (structured_RNA) RNA: GGUCACGUCUCAAUCAACUCCCAAAGGCCUUUUUUAGGGCCACCCAUCAACAGCUCGCAGUCAAG , and I need its recorded binding signal. 1.9

Item consensus (structured_RNA) RNA: GGUCACGUCUCAAUCAACUCCCAAAGGCCCUUUUGAGGGCCACCCAUCAACAGCUCGCAGUCAAG has what recorded binding signal? 3.37

For consensus (structured_RNA) RNA: GGUCACGUCUCAAUCAACUCCCAAAGGCCUUUCUCAGGGCCACCCAUCAACAGCUCGCAGUCAAG , what is its reported binding signal? 1.93

So what does the record say about binding signal for consensus (structured_RNA) RNA: GGUCACGUCUCAAUCAACUCCCAAAGGUUCUUCUAAGAACCACCCAUCAACAGCUCGCAGUCAAG ? 3.04

Could you share which binding signal value was measured for consensus (structured_RNA) RNA: GGUCACGUCUCAAUCAACUCCCAAAGGCCUUUCUAAAGGCCACCCAUCAACAGCUCGCAGUCAAG ? 3.74

Endpoint output: binding signal of consensus (structured_RNA) RNA: GGUCACGUCUCAAUCAACUCCCAAAGGUUUUUCUAAAAACCACCCAUCAACAGCUCGCAGUCAAG . Value? 3.04

GET /values?readout=binding signal&item= consensus (structured_RNA) RNA: GGUCACGUCUCAAUCAACUCCCAAAGGUUCUUCUAAGAGCCACCCAUCAACAGCUCGCAGUCAAG 2.77

What value of binding signal has been reported for the following binder? consensus (structured_RNA) RNA: GGUCACGUCUCAAUCAACUCCCAAAGGUCCUUCUCAGGGCCACCCAUCAACAGCUCGCAGUCAAG 3.16
